B1: KCTD10 (parent)
chain: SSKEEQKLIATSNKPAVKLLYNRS

Variants of: B1
protocol summary: protein stability index of a GFP-peptide fusion (GPS, HEK-293T) (PSI 1-6); higher = more stable;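 further: lentivirally expressed fusions sorted by FACS into six bins by GFP to DsRed ratio, PSI derived from sequencing read proportions per bin multiplied by bin number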
condition info: c terminus: a fixed tail appended

{"columns": ["mutant label", "protein stability index"],
 "data": [
  ["A10P", 3.78],
  ["L20G", 4.73],
  ["L8S", 4.62],
  ["L20F", 3.95],
  ["K14T", 4.04],
  ["N13Y", 3.38],
  ["L20M", 4.11],
  ["N13T", 4],
  ["A16I", 3.97],
  ["E5N", 3.7],
  ["N22M", 2.92],
  ["K18G", 4.02],
  ["N22P", 3.83],
  ["S1F", 3.6],
  ["N13A", 3.58],
  ["E4F", 3.6],
  ["S12W", 2.79],
  ["R23H", 3.85],
  ["S12L", 3.72],
  ["I9E", 4.72],
  ["Y21T", 4.54],
  ["K3D", 4.5],
  ["L20Y", 3.82],
  ["K7D", 4.49],
  ["N13F", 3.16],
  ["E5R", 3.59],
  ["A16L", 3.54],
  ["K14E", 4.39],
  ["I9G", 4.54],
  ["K14F", 3.39],
  ["I9Q", 4.31],
  ["Q6I", 3.33],
  ["A10Q", 4.27],
  ["S24C", 3.25],
  ["S2L", 3.79],
  ["L19D", 4.62],
  ["Y21Q", 4.46],
  ["L19E", 4.44],
  ["P15S", 4.07],
  ["L19F", 4.12],
  ["K14L", 3.8],
  ["K14Q", 4.28],
  ["N13Q", 2.95],
  ["R23V", 3.74],
  ["K18F", 2.83],
  ["K18Q", 4.39]
]}
